- Test target: ~100 representative kinases (Homo sapiens)
- Construct: Recombinant protein kinase domains with a concentration of 2 μM
- Test summary: DSF 100 kinase selectivity screen;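 note: compound tested at 20 µM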
- Format: binding
- Experimental context: Protein TAF1; DSF; average of three replicates
- Method: Recombinant protein kinase domains with a concentration of 2 μM were mixed with a 20 μM compound solution in dimethyl sulfoxide (DMSO), 20 mM Hepes (pH 7.5), and 500 mM NaCl. SYPRO Orange (5000×, Invitrogen) was added as a fluorescence probe (1μl/ml). Subsequently, temperature-dependent protein unfolding profiles were measured using the QuantStudio 5 realtime PCR machine (Thermo Fisher Scientific, Waltham, MA, USA). […] The temperature was raised with a step rate of 3°C/min. […]
Parameter measured: dTm (K)

INSERT INTO measurements (compound, measured_number) VALUES
  ('Cc1ccc(C(=O)Nc2ccc(CN3CCN(C)CC3)c(C(F)(F)F)c2)cc1C#Cc1cnc2[nH]ncc2c1 [GZD-824, reference compound]', -0.68),
  ('CN[C@@H]1C[C@H]2O[C@@](C)([C@@H]1OC)n1c3ccccc3c3c4c(c5c6ccccc6n2c5c31)C(=O)NC4', 0.52),
  ('CCSc1nc(NC)c2c(-c3cccc(NC(=O)Nc4cc(C(C)(C)C)nn4-c4ccc(C)cc4)c3)c[nH]c2n1', -5.70);

====

- Test target: ~100 representative kinases (Homo sapiens, UniProt Q5VT25)
- Construct: Recombinant protein kinase domains with a concentration of 2 μM
- Sequence (Q5VT25 whole entry, the tested form may be a part): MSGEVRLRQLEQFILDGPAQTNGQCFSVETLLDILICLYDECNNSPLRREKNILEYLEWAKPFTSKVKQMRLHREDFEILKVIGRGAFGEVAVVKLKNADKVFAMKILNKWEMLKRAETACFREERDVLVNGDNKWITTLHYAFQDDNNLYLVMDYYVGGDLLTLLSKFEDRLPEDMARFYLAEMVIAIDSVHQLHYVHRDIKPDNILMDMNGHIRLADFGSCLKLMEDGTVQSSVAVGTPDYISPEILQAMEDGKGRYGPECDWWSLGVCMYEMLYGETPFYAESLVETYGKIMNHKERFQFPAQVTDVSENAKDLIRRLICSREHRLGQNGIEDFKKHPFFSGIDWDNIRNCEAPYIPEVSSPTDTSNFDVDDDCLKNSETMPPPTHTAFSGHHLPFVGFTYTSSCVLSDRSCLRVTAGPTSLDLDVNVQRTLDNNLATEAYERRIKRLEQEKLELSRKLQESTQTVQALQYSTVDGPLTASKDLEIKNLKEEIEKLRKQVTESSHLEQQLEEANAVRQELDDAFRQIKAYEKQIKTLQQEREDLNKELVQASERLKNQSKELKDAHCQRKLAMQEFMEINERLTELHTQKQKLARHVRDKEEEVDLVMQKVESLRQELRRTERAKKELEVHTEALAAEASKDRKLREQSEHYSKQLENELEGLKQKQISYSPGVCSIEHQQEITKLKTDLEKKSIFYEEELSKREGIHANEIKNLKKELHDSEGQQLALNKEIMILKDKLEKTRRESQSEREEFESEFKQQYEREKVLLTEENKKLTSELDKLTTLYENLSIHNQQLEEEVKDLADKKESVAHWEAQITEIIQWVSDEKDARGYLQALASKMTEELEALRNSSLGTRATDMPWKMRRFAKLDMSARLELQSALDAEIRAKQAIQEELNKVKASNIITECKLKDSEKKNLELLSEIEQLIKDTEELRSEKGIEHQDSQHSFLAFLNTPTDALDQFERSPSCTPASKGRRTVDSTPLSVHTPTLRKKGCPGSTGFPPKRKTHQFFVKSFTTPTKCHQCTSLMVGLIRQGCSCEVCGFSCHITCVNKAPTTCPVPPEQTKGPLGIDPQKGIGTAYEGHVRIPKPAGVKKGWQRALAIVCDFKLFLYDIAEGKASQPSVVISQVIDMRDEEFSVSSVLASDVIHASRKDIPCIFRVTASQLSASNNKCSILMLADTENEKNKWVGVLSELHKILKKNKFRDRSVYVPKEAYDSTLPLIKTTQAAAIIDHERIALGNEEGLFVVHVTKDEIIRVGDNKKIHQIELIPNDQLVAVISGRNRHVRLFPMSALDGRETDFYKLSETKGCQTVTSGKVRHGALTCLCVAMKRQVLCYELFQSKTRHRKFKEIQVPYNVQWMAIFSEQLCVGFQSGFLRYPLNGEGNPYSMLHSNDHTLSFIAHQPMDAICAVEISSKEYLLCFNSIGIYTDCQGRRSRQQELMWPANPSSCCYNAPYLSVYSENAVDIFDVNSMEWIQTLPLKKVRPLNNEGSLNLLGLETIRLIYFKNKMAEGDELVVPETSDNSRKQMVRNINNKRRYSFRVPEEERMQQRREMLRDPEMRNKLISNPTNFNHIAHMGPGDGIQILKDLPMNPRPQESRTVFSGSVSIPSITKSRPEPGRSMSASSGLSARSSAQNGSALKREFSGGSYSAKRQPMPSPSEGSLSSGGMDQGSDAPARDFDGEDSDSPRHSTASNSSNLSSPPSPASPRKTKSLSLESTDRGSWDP
- Test summary: DSF 100 kinase selectivity screen;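 note: compound tested at 20 µM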
- Format: binding
- Experimental context: Protein CDC42BPA; average of three replicates
Parameter measured: dTm

INSERT INTO measurements (structure_string, result) VALUES
  ('CCSc1nc(NC)c2c(-c3cccc(NC(=O)Nc4cc(C(C)(C)C)nn4-c4ccc(C)cc4)c3)c[nH]c2n1', '0.69 K'),
  ('Cc1ccc(NC(=O)C2(C(=O)Nc3cccc(-c4c[nH]c5ncnc(N6CCOCC6)c45)c3)CC2)cc1', '-1.21 K'),
  ('COc1ccc(NC(=O)C2(C(=O)Nc3cccc(-c4c[nH]c5ncnc(N6CCOCC6)c45)c3)CC2)cc1', '-1.10 K'),
  ('CC(C)(C)c1cccc(NC(=O)C2(C(=O)Nc3cccc(-c4c[nH]c5ncnc(N6CCOCC6)c45)c3)CC2)c1', '-0.53 K');

====

- Test target: ~100 representative kinases (Homo sapiens, UniProt O96013)
- Construct: Recombinant protein kinase domains with a concentration of 2 μM
- Sequence (O96013 whole entry, the tested form may be a part): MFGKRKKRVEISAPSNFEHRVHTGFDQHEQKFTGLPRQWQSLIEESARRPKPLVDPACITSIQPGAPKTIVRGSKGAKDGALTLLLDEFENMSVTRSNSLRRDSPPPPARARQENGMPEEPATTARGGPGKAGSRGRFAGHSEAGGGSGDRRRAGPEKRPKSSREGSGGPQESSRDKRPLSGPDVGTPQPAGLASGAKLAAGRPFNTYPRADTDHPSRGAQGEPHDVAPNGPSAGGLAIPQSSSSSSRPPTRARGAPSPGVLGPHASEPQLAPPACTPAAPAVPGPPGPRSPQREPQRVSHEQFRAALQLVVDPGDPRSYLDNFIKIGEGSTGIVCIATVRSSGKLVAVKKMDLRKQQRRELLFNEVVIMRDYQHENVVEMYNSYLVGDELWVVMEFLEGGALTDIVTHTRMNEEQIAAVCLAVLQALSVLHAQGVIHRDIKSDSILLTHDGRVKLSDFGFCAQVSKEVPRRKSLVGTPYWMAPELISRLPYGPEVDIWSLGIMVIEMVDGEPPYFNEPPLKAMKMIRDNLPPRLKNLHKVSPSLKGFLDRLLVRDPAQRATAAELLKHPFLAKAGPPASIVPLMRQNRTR
- Test summary: DSF 100 kinase selectivity screen;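 note: compound tested at 20 µM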
- Type: binding
- Experimental context: protein PAK4; average of three replicates
Parameter measured: dTm (K)

INSERT INTO measurements (compound, measured_number) VALUES
  ('O=C(Nc1ccccc1)C1(C(=O)Nc2cccc(-c3c[nH]c4ncnc(N5CCOCC5)c34)c2)CC1', -0.15),
  ('Cc1ccc(C(=O)Nc2ccc(CN3CCN(C)CC3)c(C(F)(F)F)c2)cc1C#Cc1c[nH]c2ncnc(N3CCOCC3)c12', 0.31),
  ('Cc1ccc(NC(=O)C2(C(=O)Nc3cccc(-c4c[nH]c5ncnc(N6CCOCC6)c45)c3)CC2)cc1', -0.55),
  ('O=C(Nc1cccc(-c2c[nH]c3ncnc(N4CCOCC4)c23)c1)C1(C(=O)Nc2ccc(F)c(Br)c2)CC1', 1.11),
  ('Cc1ccc(-n2nc(C(C)(C)C)cc2NC(=O)Nc2cccc(-c3c[nH]c4nc(Cl)nc(N5CCOCC5)c34)c2)cc1', 0.13),
  ('Cc1cc(NC(=O)C2(C(=O)Nc3ccc(F)cc3)CC2)cc(-c2c[nH]c3ncnc(N4CCOCC4)c23)c1', 0.99),
  ('CC(C)(C)c1cccc(NC(=O)C2(C(=O)Nc3cccc(-c4c[nH]c5ncnc(N6CCOCC6)c45)c3)CC2)c1', 0.76),
  ('O=C(Nc1cccc(-c2c[nH]c3ncnc(N4CCOCC4)c23)c1)c1cccn(-c2ccc(F)cc2)c1=O', -0.78),
  ('COc1cc(NC(=O)C2(C(=O)Nc3cccc(-c4c[nH]c5ncnc(N6CCOCC6)c45)c3)CC2)ccc1F', -0.79),
  ('COc1cc2c(Oc3ccc(NC(=O)C4(C(=O)Nc5ccc(F)cc5)CC4)cc3F)ccnc2cc1OCCCN1CCOCC1 [Foretinib, reference compound]', 0.34),
  ('CCNc1nc(Nc2cc(F)c(C(=O)N3CCOCC3)cc2OC)ncc1C(F)(F)F', 1.08),
  ('O=C(Nc1cc(F)cc(Br)c1)C1(C(=O)Nc2cccc(-c3c[nH]c4ncnc(N5CCOCC5)c34)c2)CC1', 0.52),
  ('CC(C)(C)c1cc(NC(=O)Nc2cccc(-c3c[nH]c4ncnc(N5CCOCC5)c34)c2)n(-c2ccc3ncccc3c2)n1', 0.80),
  ('Cn1cc(-c2c[nH]c3ncnc(N4CCOCC4)c23)cc1C#N', 4.09);

====

- Test target: ~100 representative kinases (Homo sapiens, UniProt Q96PY6)
- Construct: Recombinant protein kinase domains with a concentration of 2 μM
- Sequence (Q96PY6 whole entry, the tested form may be a part): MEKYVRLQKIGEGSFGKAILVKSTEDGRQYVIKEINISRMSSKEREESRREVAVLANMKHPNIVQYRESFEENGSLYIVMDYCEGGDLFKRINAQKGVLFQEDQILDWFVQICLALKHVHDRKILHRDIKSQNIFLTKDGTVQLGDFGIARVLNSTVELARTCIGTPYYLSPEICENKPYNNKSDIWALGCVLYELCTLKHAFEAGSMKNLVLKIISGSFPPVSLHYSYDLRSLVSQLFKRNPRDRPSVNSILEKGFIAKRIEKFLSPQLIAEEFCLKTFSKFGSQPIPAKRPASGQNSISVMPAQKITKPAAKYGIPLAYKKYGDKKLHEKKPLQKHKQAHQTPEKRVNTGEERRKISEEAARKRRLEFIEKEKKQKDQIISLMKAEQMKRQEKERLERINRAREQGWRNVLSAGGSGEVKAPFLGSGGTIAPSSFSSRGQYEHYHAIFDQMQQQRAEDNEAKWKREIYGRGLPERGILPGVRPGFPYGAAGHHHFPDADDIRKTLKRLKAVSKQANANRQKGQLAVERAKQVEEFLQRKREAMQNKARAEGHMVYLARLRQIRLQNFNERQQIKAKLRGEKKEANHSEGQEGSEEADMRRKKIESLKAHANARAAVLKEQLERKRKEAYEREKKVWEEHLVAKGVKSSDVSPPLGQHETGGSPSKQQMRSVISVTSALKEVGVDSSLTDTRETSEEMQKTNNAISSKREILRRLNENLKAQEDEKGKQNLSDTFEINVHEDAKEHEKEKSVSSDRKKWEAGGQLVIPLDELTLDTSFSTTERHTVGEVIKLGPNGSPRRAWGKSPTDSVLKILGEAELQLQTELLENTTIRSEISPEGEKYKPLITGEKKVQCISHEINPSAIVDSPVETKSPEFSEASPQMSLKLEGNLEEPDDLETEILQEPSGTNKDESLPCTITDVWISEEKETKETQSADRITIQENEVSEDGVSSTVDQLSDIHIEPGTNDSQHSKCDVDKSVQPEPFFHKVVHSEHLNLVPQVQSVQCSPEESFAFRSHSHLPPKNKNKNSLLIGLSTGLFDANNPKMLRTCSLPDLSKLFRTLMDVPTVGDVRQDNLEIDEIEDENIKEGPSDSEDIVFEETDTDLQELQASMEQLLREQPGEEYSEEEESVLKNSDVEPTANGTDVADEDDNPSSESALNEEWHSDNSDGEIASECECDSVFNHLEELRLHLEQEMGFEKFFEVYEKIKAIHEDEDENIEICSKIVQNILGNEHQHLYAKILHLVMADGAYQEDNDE
- Test summary: DSF 100 kinase selectivity screen;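 note: compound tested at 20 µM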
- Type: binding
- Experimental context: protein NEK1; average of three replicates
Threshold check on dTm: strictly below -0.05 K is class 1; on or above -0.05 K is class 0.

INSERT INTO measurements (compound, assigned_label) VALUES
  ('CCc1ccc(NC(=O)C2(C(=O)Nc3cccc(-c4c[nH]c5ncnc(N6CCOCC6)c45)c3)CC2)cc1', 'class 0'),
  ('Cc1ccc(C(=O)Nc2ccc(CN3CCN(C)CC3)c(C(F)(F)F)c2)cc1C#Cc1cnc2[nH]ncc2c1 [GZD-824, reference compound]', 'class 0'),
  ('COc1cc(S(C)(=O)=O)ccc1Nc1nc(N(C)C)c2c(Cl)c[nH]c2n1', 'class 0'),
  ('CC(C)(C)c1cccc(NC(=O)C2(C(=O)Nc3cccc(-c4c[nH]c5ncnc(N6CCOCC6)c45)c3)CC2)c1', 'class 1'),
  ('Cc1ccc(C(=O)Nc2ccc(CN3CCN(C)CC3)c(C(F)(F)F)c2)cc1C#Cc1cnc2cccnn12 [Ponatinib, reference compound]', 'class 0'),
  ('Cc1cc(F)ccc1NC(=O)C1(C(=O)Nc2cccc(-c3c[nH]c4ncnc(N5CCOCC5)c34)c2)CC1', 'class 1'),
  ('O=C(Nc1ccc(F)cc1)C1(C(=O)Nc2cccc(-c3c[nH]c4ncnc(N5CCOCC5)c34)c2)CC1', 'class 1'),
  ('O=C(Nc1cccc(-c2c[nH]c3ncnc(N4CCOCC4)c23)c1)C1(C(=O)Nc2ccc(F)c(F)c2)CC1', 'class 0'),
  ('O=C(Nc1ccccc1)C1(C(=O)Nc2cccc(-c3c[nH]c4ncnc(N5CCOCC5)c34)c2)CC1', 'class 0'),
  ('O=C(Nc1cccc(-c2c[nH]c3ncnc(N4CCOCC4)c23)c1)C1(C(=O)Nc2cc(Br)c(F)cc2F)CC1', 'class 1'),
  ('COc1ccc(NC(=O)C2(C(=O)Nc3cccc(-c4c[nH]c5ncnc(N6CCOCC6)c45)c3)CC2)cc1', 'class 0'),
  ('Cc1ccc(-n2nc(C(C)(C)C)cc2NC(=O)Nc2cccc(-c3c[nH]c4ncnc(N5CCOCC5)c34)c2)cc1', 'class 1'),
  ('Cc1cc(NC(=O)C2(C(=O)Nc3ccc(F)cc3)CC2)cc(-c2c[nH]c3ncnc(N4CCOCC4)c23)c1', 'class 0');

====

As shown below, each of these molecules has a reported dTm value.
- Test target: ~100 representative kinases (Homo sapiens)
- Construct: Recombinant protein kinase domains with a concentration of 2 μM
- Test summary: DSF 100 kinase selectivity screen;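 note: compound tested at 20 µM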
- Type: binding
- Experimental context: protein FESA; average of three replicates
- Experimental: Recombinant protein kinase domains with a concentration of 2 μM were mixed with a 20 μM compound solution in dimethyl sulfoxide (DMSO), 20 mM Hepes (pH 7.5), and 500 mM NaCl. SYPRO Orange (5000×, Invitrogen) was added as a fluorescence probe (1μl/ml). Subsequently, temperature-dependent protein unfolding profiles were measured using the QuantStudio 5 realtime PCR machine (Thermo Fisher Scientific, Waltham, MA, USA). […] The temperature was raised with a step rate of 3°C/min. […]
Parameter measured: dTm (K)

INSERT INTO measurements (molecule, test_target, measured_number) VALUES
  ('COc1cc2c(Oc3ccc(NC(=O)C4(C(=O)Nc5ccc(F)cc5)CC4)cc3F)ccnc2cc1OCCCN1CCOCC1 [Foretinib, reference compound]', '~100 representative kinases (Homo sapiens)', 6.46),
  ('CNC(=O)c1cc(Oc2ccc(NC(=O)Nc3cc(C(C)(C)C)nn3-c3ccc4ncccc4c3)c(F)c2)ccn1 [Rebastinib, reference compound]', '~100 representative kinases (Homo sapiens)', 7.16),
  ('O=C(Nc1ccccc1)C1(C(=O)Nc2cccc(-c3c[nH]c4ncnc(N5CCOCC5)c34)c2)CC1', '~100 representative kinases (Homo sapiens)', 6.39),
  ('O=C(Nc1ccc(F)cc1)C1(C(=O)Nc2cccc(-c3c[nH]c4ncnc(N5CCOCC5)c34)c2)CC1', '~100 representative kinases (Homo sapiens)', 7.20),
  ('CC(=O)N1CCN(c2nc(Cl)nc3[nH]cc(-c4cccc(NC(=O)Nc5cc(C(C)(C)C)nn5-c5ccc(C)cc5)c4)c23)CC1', '~100 representative kinases (Homo sapiens)', 0.00),
  ('Cc1ccc(NC(=O)C2(C(=O)Nc3cccc(-c4c[nH]c5ncnc(N6CCOCC6)c45)c3)CC2)cc1', '~100 representative kinases (Homo sapiens)', 6.21),
  ('O=C(Nc1cccc(-c2c[nH]c3ncnc(N4CCOCC4)c23)c1)C1(C(=O)Nc2ccc(F)cc2F)CC1', '~100 representative kinases (Homo sapiens)', 4.70),
  ('O=C(Nc1cccc(-c2c[nH]c3ncnc(N4CCOCC4)c23)c1)C1(C(=O)Nc2ccc(F)c(Cl)c2)CC1', '~100 representative kinases (Homo sapiens)', 6.93),
  ('COc1cc(S(C)(=O)=O)ccc1Nc1nc(N(C)C)c2c(Cl)c[nH]c2n1', '~100 representative kinases (Homo sapiens)', 2.13),
  ('Cc1cc(NC(=O)C2(C(=O)Nc3ccc(F)cc3)CC2)cc(-c2c[nH]c3ncnc(N4CCOCC4)c23)c1', '~100 representative kinases (Homo sapiens)', 4.17),
  ('CCSc1nc(NC)c2c(-c3cccc(NC(=O)Nc4cc(C(C)(C)C)nn4-c4ccc(C)cc4)c3)c[nH]c2n1', '~100 representative kinases (Homo sapiens)', 3.81),
  ('Cn1cc(-c2c[nH]c3ncnc(N4CCOCC4)c23)cc1C#N', '~100 representative kinases (Homo sapiens)', 0.78),
  ('O=C(Nc1cccc(-c2c[nH]c3ncnc(N4CCOCC4)c23)c1)C1(C(=O)Nc2ccc(F)c(Br)c2)CC1', '~100 representative kinases (Homo sapiens)', 6.49),
  ('O=C(Nc1cccc(-c2c[nH]c3ncnc(N4CCOCC4)c23)c1)c1cccn(-c2ccc(F)cc2)c1=O', '~100 representative kinases (Homo sapiens)', 6.45),
  ('CC(C)(C)c1cc(NC(=O)Nc2cccc(-c3c[nH]c4ncnc(N5CCOCC5)c34)c2)n(-c2ccc3ncccc3c2)n1', '~100 representative kinases (Homo sapiens)', 9.54),
  ('CCc1ccc(NC(=O)C2(C(=O)Nc3cccc(-c4c[nH]c5ncnc(N6CCOCC6)c45)c3)CC2)cc1', '~100 representative kinases (Homo sapiens)', 4.64),
  ('COc1cc(NC(=O)C2(C(=O)Nc3cccc(-c4c[nH]c5ncnc(N6CCOCC6)c45)c3)CC2)ccc1F', '~100 representative kinases (Homo sapiens)', 6.34),
  ('CCNc1nc(Nc2cc(F)c(C(=O)N3CCOCC3)cc2OC)ncc1C(F)(F)F', '~100 representative kinases (Homo sapiens)', 2.48),
  ('Cc1ccc(-n2nc(C(C)(C)C)cc2NC(=O)Nc2cccc(-c3c[nH]c4ncnc(N5CCOCC5)c34)c2)cc1', '~100 representative kinases (Homo sapiens)', 0.00),
  ('O=C(Nc1ccc(Cl)cc1)C1(C(=O)Nc2cccc(-c3c[nH]c4ncnc(N5CCOCC5)c34)c2)CC1', '~100 representative kinases (Homo sapiens)', 8.66),
  ('CC(C)(C)c1cccc(NC(=O)C2(C(=O)Nc3cccc(-c4c[nH]c5ncnc(N6CCOCC6)c45)c3)CC2)c1', '~100 representative kinases (Homo sapiens)', 7.02),
  ('COc1ccc(NC(=O)C2(C(=O)Nc3cccc(-c4c[nH]c5ncnc(N6CCOCC6)c45)c3)CC2)cc1', '~100 representative kinases (Homo sapiens)', 3.37),
  ('Cc1cc(F)ccc1NC(=O)C1(C(=O)Nc2cccc(-c3c[nH]c4ncnc(N5CCOCC5)c34)c2)CC1', '~100 representative kinases (Homo sapiens)', 4.33),
  ('O=C(Nc1cccc(-c2c[nH]c3ncnc(N4CCOCC4)c23)c1)C1(C(=O)Nc2cccc3c2CCC3)CC1', '~100 representative kinases (Homo sapiens)', 4.12),
  ('Cc1ccc(-n2nc(C(C)(C)C)cc2NC(=O)Nc2cccc(-c3c[nH]c4nc(Cl)nc(N5CCOCC5)c34)c2)cc1', '~100 representative kinases (Homo sapiens)', 3.55),
  ('O=C(Nc1cccc(-c2c[nH]c3ncnc(N4CCOCC4)c23)c1)C1(C(=O)Nc2cc(Br)c(F)cc2F)CC1', '~100 representative kinases (Homo sapiens)', 3.29),
  ('O=C(Nc1cccc(-c2c[nH]c3ncnc(N4CCOCC4)c23)c1)C1(C(=O)Nc2ccc(F)c(Br)c2F)CC1', '~100 representative kinases (Homo sapiens)', 3.48),
  ('C[C@@H]1CN(c2cc(-c3n[nH]c4ccc(OC5(C)CC5)cc34)ncn2)C[C@H](C)O1', '~100 representative kinases (Homo sapiens)', 1.83),
  ('COc1cc(C(=O)N2CCOCC2)c(F)cc1Nc1nc(N(C)C)c2c(Cl)c[nH]c2n1', '~100 representative kinases (Homo sapiens)', 2.67);

# credit: paper PMC12136037
